- ASSAY_PROCEDURE: self-splicing fitness, log relative to wild type (ln ratio); higher = more splicing; Tetrahymena group I intron in knt gene, E. coli kanamycin selection, DiMSum; sequences stand for … in CUCUCU…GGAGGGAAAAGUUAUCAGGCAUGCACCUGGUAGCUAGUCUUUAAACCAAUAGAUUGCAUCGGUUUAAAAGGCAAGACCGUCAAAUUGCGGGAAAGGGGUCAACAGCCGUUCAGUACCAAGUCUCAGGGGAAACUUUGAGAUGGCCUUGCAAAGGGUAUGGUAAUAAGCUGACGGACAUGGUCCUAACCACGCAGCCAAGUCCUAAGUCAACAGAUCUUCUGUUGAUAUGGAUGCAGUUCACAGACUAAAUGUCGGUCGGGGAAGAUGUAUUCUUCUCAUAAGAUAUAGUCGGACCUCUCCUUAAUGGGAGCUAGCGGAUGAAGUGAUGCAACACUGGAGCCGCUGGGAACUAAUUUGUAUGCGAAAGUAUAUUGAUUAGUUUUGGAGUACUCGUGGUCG;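 note: selection with 25 µg/mL kanamycin versus none on LB agar overnight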
- COND: 37 °C
// 0 (no) strictly below -2 in self-splicing fitness (ln); 1 (yes) otherwise

Previously resolved entries follow.
GGAAAGCAAUAUUACGACUC :: 1 (yes)
ACCCAGCAAUAUUACGUGCU :: 1 (yes)
GAGGAGCAAUAUUACGCUAC :: 0 (no)
GUUCAGCAAUAUUACGAGAA :: 0 (no)
ACCUAGCAAUAUUACGCGCC :: 1 (yes)

[ask] Determine whether measured self-splicing fitness (ln) meets or exceeds -2 for `ACUAAGCAAUAUUACGGACG`
[reply] 1 (yes)

[ask] Test whether the sequence `GAUAAGCAAUAUUACGGAGU` records self-splicing fitness (ln) of -2 or higher.
[reply] 1 (yes)

[ask] Form field: self-splicing fitness (ln) at least -2? Entry: `CUGUAGCAAUAUUACGGGCU`
[reply] 0 (no)

[ask] Hello, I need to know if `CGAGAGCAAUAUUACGCGAA` has measured self-splicing fitness (ln) not below -2. Thanks!
[reply] 1 (yes)

[ask] In plain terms: is recorded self-splicing fitness (ln) at least -2 for `ACAGAGCAAUAUUACGCUUC` ?
[reply] 0 (no)
